B1: glmS ribozyme (parent)
chain: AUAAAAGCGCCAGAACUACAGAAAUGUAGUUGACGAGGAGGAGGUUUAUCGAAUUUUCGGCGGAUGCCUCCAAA

- Variants of: B1
- assayOverview: self-cleavage kobs at 640 uM GlcN6P; higher = faster cleavage; RNA array
- conditionParameters: with glucosamine-6-phosphate
Variants at the floor of the assay were thinned out.
Catalogue of variants with associated self-cleavage kobs at 640 uM GlcN6P

[
  {
    "mutationId": "C34U A52C A64U C67U",
    "self-cleavage kobs at 640 uM GlcN6P": "< 1e-05 s⁻¹"
  },
  {
    "mutationId": "A39C G59C C68U",
    "self-cleavage kobs at 640 uM GlcN6P": "< 1e-05 s⁻¹"
  },
  {
    "mutationId": "G32U G41A C68A",
    "self-cleavage kobs at 640 uM GlcN6P": "< 1e-05 s⁻¹"
  },
  {
    "mutationId": "A15U U46C",
    "self-cleavage kobs at 640 uM GlcN6P": "0.000111 s⁻¹"
  },
  {
    "mutationId": "C10A U47A",
    "self-cleavage kobs at 640 uM GlcN6P": "< 1e-05 s⁻¹"
  },
  {
    "mutationId": "G13A A33C U55A",
    "self-cleavage kobs at 640 uM GlcN6P": "< 1e-05 s⁻¹"
  },
  {
    "mutationId": "G9C U31C C67U",
    "self-cleavage kobs at 640 uM GlcN6P": "< 1e-05 s⁻¹"
  },
  {
    "mutationId": "C11G C16U G37A U45C A64G",
    "self-cleavage kobs at 640 uM GlcN6P": "< 1e-05 s⁻¹"
  },
  {
    "mutationId": "G37A U45G",
    "self-cleavage kobs at 640 uM GlcN6P": "0.000349 s⁻¹"
  },
  {
    "mutationId": "G9C A15U G43U",
    "self-cleavage kobs at 640 uM GlcN6P": "< 1e-05 s⁻¹"
  },
  {
    "mutationId": "A15U",
    "self-cleavage kobs at 640 uM GlcN6P": "0.00245 s⁻¹"
  },
  {
    "mutationId": "U30G G62C",
    "self-cleavage kobs at 640 uM GlcN6P": "< 1e-05 s⁻¹"
  },
  {
    "mutationId": "A15G A33G A48G G60U",
    "self-cleavage kobs at 640 uM GlcN6P": "< 1e-05 s⁻¹"
  },
  {
    "mutationId": "G43C U46C",
    "self-cleavage kobs at 640 uM GlcN6P": "< 1e-05 s⁻¹"
  },
  {
    "mutationId": "A6C C8U G35C C58G",
    "self-cleavage kobs at 640 uM GlcN6P": "< 1e-05 s⁻¹"
  },
  {
    "mutationId": "C8G A33C U55G G62U C67A",
    "self-cleavage kobs at 640 uM GlcN6P": "< 1e-05 s⁻¹"
  },
  {
    "mutationId": "G29U G37C A39U",
    "self-cleavage kobs at 640 uM GlcN6P": "< 1e-05 s⁻¹"
  },
  {
    "mutationId": "A15C C68U",
    "self-cleavage kobs at 640 uM GlcN6P": "0.000191 s⁻¹"
  },
  {
    "mutationId": "A14G C68U",
    "self-cleavage kobs at 640 uM GlcN6P": "0.00222 s⁻¹"
  },
  {
    "mutationId": "C68G",
    "self-cleavage kobs at 640 uM GlcN6P": "0.000523 s⁻¹"
  },
  {
    "mutationId": "C8G U55C",
    "self-cleavage kobs at 640 uM GlcN6P": "< 1e-05 s⁻¹"
  },
  {
    "mutationId": "G29C U69C",
    "self-cleavage kobs at 640 uM GlcN6P": "0.000129 s⁻¹"
  },
  {
    "mutationId": "A6G G9A A33C A39U G41U A53U",
    "self-cleavage kobs at 640 uM GlcN6P": "< 1e-05 s⁻¹"
  },
  {
    "mutationId": "G29C U47C",
    "self-cleavage kobs at 640 uM GlcN6P": "3.72e-05 s⁻¹"
  },
  {
    "mutationId": "C11G C16A C50G U65G",
    "self-cleavage kobs at 640 uM GlcN6P": "0.000148 s⁻¹"
  },
  {
    "mutationId": "A14C A15G G37C U49C",
    "self-cleavage kobs at 640 uM GlcN6P": "< 1e-05 s⁻¹"
  },
  {
    "mutationId": "A39U G63C C71G",
    "self-cleavage kobs at 640 uM GlcN6P": "< 1e-05 s⁻¹"
  },
  {
    "mutationId": "G32C U45G U65A",
    "self-cleavage kobs at 640 uM GlcN6P": "< 1e-05 s⁻¹"
  },
  {
    "mutationId": "A12C U54G",
    "self-cleavage kobs at 640 uM GlcN6P": "0.00452 s⁻¹"
  },
  {
    "mutationId": "A52C C68A",
    "self-cleavage kobs at 640 uM GlcN6P": "3.82e-05 s⁻¹"
  },
  {
    "mutationId": "G7A A15U U56G C58A",
    "self-cleavage kobs at 640 uM GlcN6P": "< 1e-05 s⁻¹"
  },
  {
    "mutationId": "C8A G13U",
    "self-cleavage kobs at 640 uM GlcN6P": "< 1e-05 s⁻¹"
  },
  {
    "mutationId": "U30G U45C",
    "self-cleavage kobs at 640 uM GlcN6P": "0.000201 s⁻¹"
  },
  {
    "mutationId": "G7U A33G",
    "self-cleavage kobs at 640 uM GlcN6P": "< 1e-05 s⁻¹"
  },
  {
    "mutationId": "A12U U69G C70A",
    "self-cleavage kobs at 640 uM GlcN6P": "8.9e-05 s⁻¹"
  },
  {
    "mutationId": "A36C G63A",
    "self-cleavage kobs at 640 uM GlcN6P": "< 1e-05 s⁻¹"
  },
  {
    "mutationId": "A39C C58G C67G C71G",
    "self-cleavage kobs at 640 uM GlcN6P": "< 1e-05 s⁻¹"
  },
  {
    "mutationId": "G37C G63A",
    "self-cleavage kobs at 640 uM GlcN6P": "< 1e-05 s⁻¹"
  },
  {
    "mutationId": "A39G G40U",
    "self-cleavage kobs at 640 uM GlcN6P": "0.000551 s⁻¹"
  },
  {
    "mutationId": "C16G A48G U56G G59A",
    "self-cleavage kobs at 640 uM GlcN6P": "< 1e-05 s⁻¹"
  },
  {
    "mutationId": "A6C U49G G62A A64G",
    "self-cleavage kobs at 640 uM GlcN6P": "< 1e-05 s⁻¹"
  },
  {
    "mutationId": "G29C A39C C61G",
    "self-cleavage kobs at 640 uM GlcN6P": "< 1e-05 s⁻¹"
  },
  {
    "mutationId": "C8G U57G C70U",
    "self-cleavage kobs at 640 uM GlcN6P": "< 1e-05 s⁻¹"
  },
  {
    "mutationId": "C67U C70G",
    "self-cleavage kobs at 640 uM GlcN6P": "2.59e-05 s⁻¹"
  },
  {
    "mutationId": "U31A U69G",
    "self-cleavage kobs at 640 uM GlcN6P": "6.47e-05 s⁻¹"
  },
  {
    "mutationId": "A33G G40U G59U",
    "self-cleavage kobs at 640 uM GlcN6P": "< 1e-05 s⁻¹"
  },
  {
    "mutationId": "U49G U57A",
    "self-cleavage kobs at 640 uM GlcN6P": "< 1e-05 s⁻¹"
  },
  {
    "mutationId": "C8U U47C G62U",
    "self-cleavage kobs at 640 uM GlcN6P": "< 1e-05 s⁻¹"
  },
  {
    "mutationId": "C11A A12U A36C A48C G60U G62A",
    "self-cleavage kobs at 640 uM GlcN6P": "< 1e-05 s⁻¹"
  },
  {
    "mutationId": "G9A U30C A42C C70U",
    "self-cleavage kobs at 640 uM GlcN6P": "< 1e-05 s⁻¹"
  },
  {
    "mutationId": "C8G C34G A52G",
    "self-cleavage kobs at 640 uM GlcN6P": "< 1e-05 s⁻¹"
  },
  {
    "mutationId": "G59U",
    "self-cleavage kobs at 640 uM GlcN6P": "1.83e-05 s⁻¹"
  },
  {
    "mutationId": "G32U U49C",
    "self-cleavage kobs at 640 uM GlcN6P": "< 1e-05 s⁻¹"
  },
  {
    "mutationId": "U47A C58A",
    "self-cleavage kobs at 640 uM GlcN6P": "7.69e-05 s⁻¹"
  },
  {
    "mutationId": "C34U U47G",
    "self-cleavage kobs at 640 uM GlcN6P": "< 1e-05 s⁻¹"
  },
  {
    "mutationId": "C8A C67G C68G",
    "self-cleavage kobs at 640 uM GlcN6P": "0.000231 s⁻¹"
  },
  {
    "mutationId": "G9C U49C",
    "self-cleavage kobs at 640 uM GlcN6P": "< 1e-05 s⁻¹"
  },
  {
    "mutationId": "U31C G66A",
    "self-cleavage kobs at 640 uM GlcN6P": "0.000724 s⁻¹"
  },
  {
    "mutationId": "G35U G40C U49C G51A",
    "self-cleavage kobs at 640 uM GlcN6P": "< 1e-05 s⁻¹"
  },
  {
    "mutationId": "G40U G43U G51C U65C",
    "self-cleavage kobs at 640 uM GlcN6P": "< 1e-05 s⁻¹"
  },
  {
    "mutationId": "A14G C34U",
    "self-cleavage kobs at 640 uM GlcN6P": "< 1e-05 s⁻¹"
  },
  {
    "mutationId": "G66A U69G",
    "self-cleavage kobs at 640 uM GlcN6P": "0.000427 s⁻¹"
  },
  {
    "mutationId": "A33U A39U G41C G43A C70G",
    "self-cleavage kobs at 640 uM GlcN6P": "< 1e-05 s⁻¹"
  },
  {
    "mutationId": "C34A U49C C58A",
    "self-cleavage kobs at 640 uM GlcN6P": "< 1e-05 s⁻¹"
  },
  {
    "mutationId": "G13C U56A C58G C71U",
    "self-cleavage kobs at 640 uM GlcN6P": "3.8e-05 s⁻¹"
  },
  {
    "mutationId": "A12C U30G U45C C50A A52U",
    "self-cleavage kobs at 640 uM GlcN6P": "< 1e-05 s⁻¹"
  },
  {
    "mutationId": "C10A A12C G66U",
    "self-cleavage kobs at 640 uM GlcN6P": "< 1e-05 s⁻¹"
  },
  {
    "mutationId": "G7A C50U",
    "self-cleavage kobs at 640 uM GlcN6P": "< 1e-05 s⁻¹"
  },
  {
    "mutationId": "U46G U55G U69G",
    "self-cleavage kobs at 640 uM GlcN6P": "0.000454 s⁻¹"
  }
]

Data origin, for the record: the supplement of paper PMC7125110
